Source listed as ChEMBL document CHEMBL4325918.

TEST_TARGET: UniProt:P21554
Sequence (P21554 whole entry): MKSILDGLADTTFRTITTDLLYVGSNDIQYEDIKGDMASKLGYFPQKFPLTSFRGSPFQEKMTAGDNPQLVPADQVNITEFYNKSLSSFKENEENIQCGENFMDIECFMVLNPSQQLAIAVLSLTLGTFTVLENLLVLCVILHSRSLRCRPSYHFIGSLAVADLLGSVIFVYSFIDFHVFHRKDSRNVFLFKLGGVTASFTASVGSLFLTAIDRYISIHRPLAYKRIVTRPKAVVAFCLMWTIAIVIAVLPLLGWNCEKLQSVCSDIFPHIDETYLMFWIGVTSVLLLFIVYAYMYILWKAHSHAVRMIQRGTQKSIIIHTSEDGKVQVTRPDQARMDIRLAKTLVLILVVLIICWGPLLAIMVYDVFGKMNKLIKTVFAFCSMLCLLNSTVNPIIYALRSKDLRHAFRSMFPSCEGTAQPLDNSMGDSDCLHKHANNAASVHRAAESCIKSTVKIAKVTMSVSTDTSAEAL
TEST_METHOD_NOTES: Allosteric modulation of CB1 receptor (unknown origin) assessed as inhibition of CP55940-induced [35S]GTPgammaS binding
pIC50: −log10 of the molar value.
QUANTITY: pIC50

STRUCTURE_SMILES	VALUE
O=C(Nc1ccc(Cl)cc1)Nc1cccc(-c2ccccc2)c1	6.36
O=C(Nc1ccc(Cl)cc1)Nc1cccc(-c2ccc(F)cc2)c1	6.82
O=C(Nc1ccc(Cl)cc1)Nc1cccc(-c2ccsc2)c1	6.79
O=C(Nc1ccc(Cl)cc1)Nc1cccc(-c2ccc(F)cc2F)c1	6.45
Cc1cc(-c2cccc(NC(=O)Nc3ccc(Cl)cc3)c2)cs1	6.11
O=C(Nc1ccc(Cl)cc1)Nc1cccc(-c2cc(Cl)cc(Cl)c2)c1	6.52
O=C(Nc1ccc(Cl)cc1)Nc1cccc(-c2cccc([N+](=O)[O-])c2)c1	6.34
Cc1ccc(-c2cccc(NC(=O)Nc3ccc(Cl)cc3)c2)s1	6.43
O=C(Nc1ccc(Cl)cc1)Nc1cccc(-c2ccccn2)c1	5.58
O=C(Nc1ccc(Cl)cc1)Nc1cccc(-c2ccoc2)c1	6.36
O=C(Nc1ccc(Cl)cc1)Nc1cccc(N2CCC2)c1	5.86
